Origin of values: ChEMBL document CHEMBL3779832

target: Free fatty acid receptor 1 (Homo sapiens, UniProt O14842); assay: Agonist activity at human FFA1 expressed in CHO cells assessed as intracellular Ca2+ level at 100 nM measured for 90 secs by Fluo-4 AM-based FLIPR assay; type: functional, cell-based
Sequence (O14842 whole entry): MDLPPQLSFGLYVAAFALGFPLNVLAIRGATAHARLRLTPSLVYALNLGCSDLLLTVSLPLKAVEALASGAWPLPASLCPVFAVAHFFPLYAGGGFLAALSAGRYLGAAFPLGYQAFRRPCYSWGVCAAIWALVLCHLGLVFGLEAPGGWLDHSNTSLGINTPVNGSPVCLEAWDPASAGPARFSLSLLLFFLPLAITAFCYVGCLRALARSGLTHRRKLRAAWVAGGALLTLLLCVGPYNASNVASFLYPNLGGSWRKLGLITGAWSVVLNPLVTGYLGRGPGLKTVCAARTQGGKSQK
measuredMetric: Activity (%)

Worked cases, answers included:
[
  {
    "molecule": "COc1ccc(COc2ccc3c(c2)OCC3CC(=O)O)cc1-n1c(C)ccc1C (stereo unspecified)",
    "targetDesc": "Free fatty acid receptor 1 (Homo sapiens, UniProt O14842)",
    "uom": "%",
    "Activity": 63.8
  },
  {
    "molecule": "O=C(O)CC1COc2cc(OCc3cccc(N4CCCCC4)c3)ccc21 (stereo unspecified)",
    "targetDesc": "Free fatty acid receptor 1 (Homo sapiens, UniProt O14842)",
    "uom": "%",
    "Activity": 34.6
  }
]

A: O=C(O)CC1COc2cc(OCc3cccc(N4CCCC4)c3)ccc21 (stereo unspecified)
B: O=C(O)CC1COc2cc(OCc3cccc(N4CCS(=O)(=O)CC4)c3)ccc21 (stereo unspecified)
Exercise: # query: argmin of Activity over A and B Write down the label attached to your selection.
Solution: B

I: Cc1ccc(C)n1-c1cccc(COc2ccc3c(c2)OCC3CC(=O)O)c1 (stereo unspecified)
II: O=C(O)CC1COc2cc(OCc3cccc(N4CCSCC4)c3)ccc21 (stereo unspecified)
Exercise: # query: argmin of Activity over I and II Write down the label attached to your selection.
Solution: II
(II: 38.2%, I: 59.9%)
